# Test system: A4-Fuk;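 further: growth inhibition of A4-Fuk cells, read out by a cell viability assay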
# run description: cells
# Type: functional, cell-based, Homo sapiens
# test settings: a4-fuk
# Description: SANGER: Inhibition of human A4-Fuk cell growth in a cell viability assay.
recorded endpoint: IC50

[[record]]
seq_string = "CISPLATIN"
tgt = "A4-Fuk"
assay_result = "47.5 µM"


----------
# Tested on: MOLT-4;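 further: growth inhibition of MOLT-4 cells, determined with a cell viability readout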
# run description: cells
# Type: functional, cell-based, Homo sapiens
# test settings: molt-4
# Description: SANGER: Inhibition of human MOLT-4 cell growth in a cell viability assay.
recorded endpoint: IC50 (nM)

[[record]]
seq_string = "BLEOMYCIN"
assay_result = 1770


----------
# Test system: NCI-H2087
# run description: cells
# Type: functional, cell-based, Homo sapiens
# test settings: nci-h2087
# Description: SANGER: Inhibition of human NCI-H2087 cell growth in a cell viability assay.
recorded endpoint: IC50 (nM)

[[record]]
seq_string = "BLEOMYCIN"
unit_string = "nM"
assay_result = 2350


----------
Catalogue of compounds with associated pIC50
# Test system: LC-1F;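 further: growth inhibition of human LC-1F cells, read out with a cell viability assay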
# run description: cells
# Assay type: functional, cell-based, Homo sapiens
# test settings: Homo sapiens, LC-1F
# Description: SANGER: Inhibition of human LC-1F cell growth in a cell viability assay.
pIC50: −log10 of the molar value.
recorded endpoint: pIC50

[[record]]
smiles_string = "Oc1ccc2ccccc2c1SSc1c(O)ccc2ccccc12"
assay_result = "< 4.49"

[[record]]
smiles_string = "COc1cccc2c1C(=O)c1c(O)c3c(c(O)c1C2=O)C[C@@](O)(C(=O)CO)C[C@@H]3O[C@H]1C[C@H](N)[C@H](O)[C@H](C)O1"
assay_result = "< 5.99"

[[record]]
smiles_string = "COc1cc(N2CCN(C)CC2)ccc1Nc1ncc2c(n1)N(C)c1ccccc1C(=O)N2C"
assay_result = "< 5.10"

[[record]]
smiles_string = "O=C(O)c1ccc(-c2c[nH]c3ncc(-c4ccccc4)cc23)cc1C1CCCC1"
assay_result = "< 4.80"


----------
# Tested on: MKN-7
# run description: cells
# Assay type: functional, cell-based, Homo sapiens
# test settings: Homo sapiens, MKN-7
# Description: SANGER: Inhibition of human MKN7 cell growth in a cell viability assay.
pIC50: −log10 of the molar value.
Parameter pIC50: see the listing below.
recorded endpoint: pIC50

[[record]]
compound = "Cn1cnc2c(F)c(Nc3ccc(Br)cc3Cl)c(C(=O)NOCCO)cc21"
assay_result = "< 5.40"

[[record]]
compound = "Nc1ccn([C@@H]2O[C@H](CO)[C@@H](O)C2(F)F)c(=O)n1"
assay_result = "< 5.99"

[[record]]
compound = "CC(C)CCN1c2nc(Nc3cc(F)c(O)c(F)c3)ncc2N(C)C(=O)C1C (stereo not drawn)"
assay_result = "< 5.30"


----------
# System: AM-38
# run description: cells
# Assay type: functional, cell-based, Homo sapiens
# test settings: Homo sapiens, AM-38
# Description: SANGER: Inhibition of human AM-38 cell growth in a cell viability assay.
Collected IC50 values appear next to each entry.
recorded endpoint: IC50

[[record]]
smiles_string = "N#Cc1c(O)c2c(-c3ccc(-c4ccccc4O)cc3)csc2[nH]c1=O"
tgt = "AM-38"
recorded_endpoint = "IC50"
assay_result = "64.4 nM"

[[record]]
smiles_string = "Oc1ccc2ccccc2c1SSc1c(O)ccc2ccccc12"
tgt = "AM-38"
recorded_endpoint = "IC50"
assay_result = "21700 nM"

[[record]]
smiles_string = "C#Cc1cccc(Nc2ncnc3cc(OCCOC)c(OCCOC)cc23)c1"
tgt = "AM-38"
recorded_endpoint = "IC50"
assay_result = "> 2000 nM"

[[record]]
smiles_string = "OCCCNc1cc(-c2ccnc(Nc3cccc(Cl)c3)n2)ccn1"
tgt = "AM-38"
recorded_endpoint = "IC50"
assay_result = "> 256 nM"

[[record]]
smiles_string = "COc1cc(N2CCN(C)CC2)ccc1Nc1ncc2c(n1)N(C)c1ccccc1C(=O)N2C"
tgt = "AM-38"
recorded_endpoint = "IC50"
assay_result = "> 8000 nM"


----------
Measured pIC50 of individual entries
# System: HSC-2
# run description: cells
# Assay type: functional, cell-based, Homo sapiens
# test settings: Homo sapiens, HSC-2
# Description: SANGER: Inhibition of human HSC-2 cell growth in a cell viability assay.
pIC50: −log10 of the molar value.
recorded endpoint: pIC50

[[record]]
compound = "N#Cc1c(O)c2c(-c3ccc(-c4ccccc4O)cc3)csc2[nH]c1=O"
tgt = "HSC-2"
recorded_endpoint = "pIC50"
comparator = "<"
assay_result = 5.99

[[record]]
compound = "Cc1cc([N+](=O)[O-])ccc1NS(=O)(=O)c1cc(Cl)ccc1Cl"
tgt = "HSC-2"
recorded_endpoint = "pIC50"
comparator = "="
assay_result = 5.34

[[record]]
compound = "CC(C)CCN1c2nc(Nc3cc(F)c(O)c(F)c3)ncc2N(C)C(=O)C1C (stereo not given)"
tgt = "HSC-2"
recorded_endpoint = "pIC50"
comparator = "<"
assay_result = 5.30

[[record]]
compound = "Cn1cnc2c(F)c(Nc3ccc(Br)cc3Cl)c(C(=O)NOCCO)cc21 [SELUMETINIB]"
tgt = "HSC-2"
recorded_endpoint = "pIC50"
comparator = "<"
assay_result = 5.40

[[record]]
compound = "COc1cccc2c1C(=O)c1c(O)c3c(c(O)c1C2=O)C[C@@](O)(C(=O)CO)C[C@@H]3O[C@H]1C[C@H](N)[C@H](O)[C@H](C)O1 [DOXORUBICIN]"
tgt = "HSC-2"
recorded_endpoint = "pIC50"
comparator = "="
assay_result = 7.57

[[record]]
compound = "CN(C)C(=N)NC(=N)N [METFORMIN]"
tgt = "HSC-2"
recorded_endpoint = "pIC50"
comparator = "="
assay_result = 1.92

[[record]]
compound = "Oc1ccc2ccccc2c1SSc1c(O)ccc2ccccc12"
tgt = "HSC-2"
recorded_endpoint = "pIC50"
comparator = "<"
assay_result = 4.49

[[record]]
compound = "CO[C@H]1C[C@@H]2CC[C@@H](C)[C@@](O)(O2)C(=O)C(=O)N2CCCC[C@H]2C(=O)O[C@H]([C@H](C)C[C@@H]2CC[C@@H](OC(=O)C(C)(CO)CO)[C@H](OC)C2)CC(=O)[C@H](C)/C=C(\\C)[C@@H](O)[C@@H](OC)C(=O)[C@H](C)C[C@H](C)/C=C/C=C/C=C/1C [TEMSIROLIMUS]"
tgt = "HSC-2"
recorded_endpoint = "pIC50"
comparator = "="
assay_result = 6.70

[[record]]
compound = "CCC/C=C/C=C/C(=O)O[C@H]1/C(=C/C(=O)OC)C[C@H]2C[C@H]([C@@H](C)O)OC(=O)C[C@H](O)C[C@@H]3C[C@H](OC(C)=O)C(C)(C)[C@](O)(C[C@@H]4C/C(=C/C(=O)OC)C[C@H](/C=C/C(C)(C)[C@]1(O)O2)O4)O3 [BRYOSTATIN 1]"
tgt = "HSC-2"
recorded_endpoint = "pIC50"
comparator = "<"
assay_result = 8.10

[[record]]
compound = "Nc1ccn([C@@H]2O[C@H](CO)[C@@H](O)C2(F)F)c(=O)n1 [GEMCITABINE]"
tgt = "HSC-2"
recorded_endpoint = "pIC50"
comparator = "="
assay_result = 8.52


----------
This listing pairs compounds with measured pIC50.
# Tested on: LXF-289 cell line
# run description: cells
# Format: functional, cell-based, Homo sapiens
# test settings: Homo sapiens, LXF-289
# Description: SANGER: Inhibition of human LXF-289 cell growth in a cell viability assay.
pIC50: −log10 of the molar value.
recorded endpoint: pIC50

[[record]]
compound = "C#Cc1cccc(Nc2ncnc3cc(OCCOC)c(OCCOC)cc23)c1 [ERLOTINIB]"
tgt = "LXF-289 cell line"
comparator = "<"
assay_result = 5.70

[[record]]
compound = "CC(C)c1ccccc1Cc1cc(C(=O)Nc2ccc(S(=O)(=O)c3ccccc3C(C)(C)C)cc2)c(O)c(O)c1O"
tgt = "LXF-289 cell line"
comparator = "="
assay_result = 7.14

[[record]]
compound = "Nc1cccc2c1CN(C1CCC(=O)NC1=O)C2=O (stereo not given) [LENALIDOMIDE]"
tgt = "LXF-289 cell line"
comparator = "<"
assay_result = 5.30

[[record]]
compound = "O=C(O)c1ccc(-c2c[nH]c3ncc(-c4ccccc4)cc23)cc1C1CCCC1 [GSK-650394]"
tgt = "LXF-289 cell line"
comparator = "="
assay_result = 5.85

[[record]]
compound = "OCCCNc1cc(-c2ccnc(Nc3cccc(Cl)c3)n2)ccn1"
tgt = "LXF-289 cell line"
comparator = "="
assay_result = 6.78

[[record]]
compound = "N[C@@H](CSC(c1ccccc1)(c1ccccc1)c1ccccc1)C(=O)O [S-TRITYL-L-CYSTEINE]"
tgt = "LXF-289 cell line"
comparator = "="
assay_result = 6.01

[[record]]
compound = "Nc1ccn([C@@H]2O[C@H](CO)[C@@H](O)C2(F)F)c(=O)n1 [GEMCITABINE]"
tgt = "LXF-289 cell line"
comparator = "="
assay_result = 8.48

[[record]]
compound = "COc1cc2ncn(-c3cc(OCc4ccccc4S(C)(=O)=O)c(C#N)s3)c2cc1OC [GSK-319347A]"
tgt = "LXF-289 cell line"
comparator = "<"
assay_result = 5.30

[[record]]
compound = "COc1cc(N2CCN(C)CC2)ccc1Nc1ncc2c(n1)N(C)c1ccccc1C(=O)N2C"
tgt = "LXF-289 cell line"
comparator = "<"
assay_result = 5.10

[[record]]
compound = "COc1cc2ncn(-c3cc(OCc4ccccc4C(F)(F)F)c(C(N)=O)s3)c2cc1OC [GW843682X]"
tgt = "LXF-289 cell line"
comparator = "="
assay_result = 7.79

[[record]]
compound = "Cc1ccc(-c2c(C(=O)CCl)n(CCCO)c3ncnc(N)c23)cc1"
tgt = "LXF-289 cell line"
comparator = "<"
assay_result = 5.40

[[record]]
compound = "N#Cc1c(O)c2c(-c3ccc(-c4ccccc4O)cc3)csc2[nH]c1=O"
tgt = "LXF-289 cell line"
comparator = "<"
assay_result = 5.99

[[record]]
compound = "Cn1cnc2c(F)c(Nc3ccc(Br)cc3Cl)c(C(=O)NOCCO)cc21 [SELUMETINIB]"
tgt = "LXF-289 cell line"
comparator = "<"
assay_result = 5.40

[[record]]
compound = "COc1cc(-c2nn([C@H]3CC[C@H](N4CCN(C(C)=O)CC4)CC3)c3ncnc(N)c23)ccc1NC(=O)c1cc2ccccc2n1C"
tgt = "LXF-289 cell line"
comparator = "="
assay_result = 6.12

[[record]]
compound = "Cc1cc([N+](=O)[O-])ccc1NS(=O)(=O)c1cc(Cl)ccc1Cl"
tgt = "LXF-289 cell line"
comparator = "="
assay_result = 5.27

